Consider the following binders; for each one, report its Top signal.
target: T1, cynomolgus CD3 (cynomolgus (Macaca fascicularis), UniProt Q95LI5 22-198; Q95LI8 22-171; Q95LI7 23-181); test: FACS on 293T-cynoCD3mix cells
T1 construct: whole, on cells; composition of the 'mix' not defined; also called cynoCD3
T1 sequence (Q95LI5 22-198, chain 1 of 3): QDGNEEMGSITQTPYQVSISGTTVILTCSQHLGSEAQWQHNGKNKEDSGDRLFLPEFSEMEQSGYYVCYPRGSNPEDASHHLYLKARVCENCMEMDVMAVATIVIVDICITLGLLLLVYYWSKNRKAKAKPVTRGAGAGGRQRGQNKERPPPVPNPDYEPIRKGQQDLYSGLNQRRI
T1 sequence (Q95LI8 22-171, chain 2 of 3): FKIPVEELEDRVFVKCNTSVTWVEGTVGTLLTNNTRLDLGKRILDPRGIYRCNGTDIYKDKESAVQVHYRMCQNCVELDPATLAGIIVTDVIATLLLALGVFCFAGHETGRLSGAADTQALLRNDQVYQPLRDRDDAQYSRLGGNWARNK
T1 sequence (Q95LI7 23-181, chain 3 of 3): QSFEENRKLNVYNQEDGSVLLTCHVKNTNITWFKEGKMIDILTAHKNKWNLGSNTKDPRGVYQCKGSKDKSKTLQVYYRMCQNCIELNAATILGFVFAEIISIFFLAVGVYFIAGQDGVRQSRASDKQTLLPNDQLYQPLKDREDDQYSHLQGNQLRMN
Number, no unit, nothing else.

Asked: Fill in: Top signal of ch126A11A4 (antibody, V domains shown) VH: QVQLQQPGTELVKPGASVKLSCKASGYTFTSYWMHWVKQRPEQGLEWIGNINPSNGDTNYNEKFKSKATLTVDKASNTAYMQLSSLTSEDSAVYYCGRDRSSQYYFDYWGQGTTLTVSS VL: DIVMSQSPSSLAVSAGEKVTMSCKSSQSLLNSRTRKNYLAWYQQKPGQSPKLLIYWASTRESGVPDRFTGSGSGTDFTLTISSVQAEDLAVYFCKQSFILRTFGGGTKLEIK is ___
Given back: 57000

Asked: Fill in: Top signal of ch124E3D6 (antibody, V domains shown) VH: QVQLQQPGTELVKPGASVKLSCKASGYTFTSYWMHWVKQRPGQGLEWIGNINPSNGDTNYNEKFKSKATLTVDKSSSTAYMQLSSLTSEDSAVYYCARDRSSQYYFDYWGQGTTLTVSS VL: DIVMSQSPSSLAVSAGEKVTMSCKSSQSLLNSRTRKNYLAWYQQKPGQSPKLLIYWASTRESGVPDRFTGSGSGTDFTLTISSVQAEDLAVYYCKQSYNLRTFGGGTKLEIK is ___
Given back: 45800

Asked: Fill in: Top signal of ch147C6F3 (antibody, V domains shown) VH: QVQLQQPGTELVKPGASVKLSCKASGYTFDSYWMHWVKQRPGQGLEWIGNLNPSNGEINYNEKFKHKATLTVDKSSSTAYMQLSSLTSEDSAVYYCSRDRSSQYYFDYWGQGTTLTVSS VL: DIVMSQSPSSLAVSAGEKVTLSCKSSQSLLNSRTRKNYLAWYQQKSGQSPKLLMYWASTRESGVPDRFTGSGSGTDFTLTITNVQAEDLAVYYCKQSYILRTFGGGTKLEIK is ___
Given back: 55200
